# measuredTarget: PDGF-BB (platelet-derived growth factor BB) (Homo sapiens) (UniProt P01127)
# Sequence (P01127 82-190): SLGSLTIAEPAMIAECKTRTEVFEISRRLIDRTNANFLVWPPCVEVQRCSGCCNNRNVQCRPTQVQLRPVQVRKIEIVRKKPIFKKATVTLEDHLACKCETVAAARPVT
# assayInfo: filter
# conditionsUsed: as 5169-4_146; PS 1; 3' inverted dT
quantityMeasured: pKd
Lab note: report pKd as minus log10 of the concentration in molar units, number only.

Annotate the sequence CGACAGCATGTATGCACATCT [5169-4_172] with its measured pKd.
10.89

###

# measuredTarget: PDGF-AB (UniProt P04085+P01127)
# Sequence (P01127 82-190, chain 2 of 2, other chains not shown): as the sequence (P01127 82-190) above
# assayInfo: filter
# conditionsUsed: VEGF-3Heg-PDGF; NapdU, BndU
quantityMeasured: Kd

Annotate the sequence CCGTTCAAGTGCTTTAGATTTAAATGGTTACGTTACACGCGTTTATAGC [4149-8_316] with its measured Kd.
0.137 nM

###

# measuredTarget: PDGF-BB (platelet-derived growth factor BB) (Homo sapiens)
# assayInfo: filter
# conditionsUsed: NapdU at P; 2'-OMe 4,7,21
quantityMeasured: Kd

Annotate the sequence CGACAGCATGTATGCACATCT [5169-4_115] with its measured Kd.
24 pM

###

Assignment: determine reported Kd for the given sequences.
# measuredTarget: PDGF-BB (platelet-derived growth factor BB) (Homo sapiens) (UniProt P01127)
# assayInfo: filter
# conditionsUsed: Trp, Ib, NE, Th, Pe, MBn dU; Heg; 2'-OMe

Annotate the sequence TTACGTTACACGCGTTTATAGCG [4149-8_252] with its measured Kd.
> 10 nM

Annotate the sequence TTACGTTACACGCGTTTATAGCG [4149-8_253] with its measured Kd.
> 10 nM

###

# measuredTarget: PDGF-BB (platelet-derived growth factor BB) (Homo sapiens) (UniProt P01127)
# assayInfo: filter
# conditionsUsed: Bn-dU, MBn-dU, Nap-dU, 2'-OMe, C3; 2 Heg between parts
quantityMeasured: Kd (nM)
API: value field is a number in nM; no unit string.

Report Kd from PDGF-BB (platelet-derived growth factor BB) (Homo sapiens) (UniProt P01127) testing of TTACGTTACCGCGTTTATAGCGCCGTTCAAGTGCTTGTAGGATTTAAATGG [4149-8_414]
0.01

###

# measuredTarget: PDGF-BB (platelet-derived growth factor BB) (Homo sapiens) (UniProt P01127)
# assayInfo: filter
# conditionsUsed: BndU at 1,8,16,17,20; MBndU at 2; Heg at 5; C3 at 11; 2'-OMe at A3,C12,A19,A21,G24 and 2'-OMe-BnU at 7,18; Table 30 gives 1.6E-11, Table 31 5.2E-11
quantityMeasured: Kd
Kindly format the answer as number then unit.

Annotate the sequence TTACGTTACCGCGTTTATAGCG [4149-8_379] with its measured Kd.
0.02 nM

###

# System: VEGF-165 (Homo sapiens), P15692-4
# Sequence: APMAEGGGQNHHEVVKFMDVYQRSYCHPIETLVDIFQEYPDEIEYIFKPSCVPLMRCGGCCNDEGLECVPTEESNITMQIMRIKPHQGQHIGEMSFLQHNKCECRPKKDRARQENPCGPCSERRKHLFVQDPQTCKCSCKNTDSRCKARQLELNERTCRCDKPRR
# assayInfo: filter
# conditionsUsed: Bn-dU, MBn-dU, Nap-dU, 2'-OMe, C3; 4 Heg between parts
quantityMeasured: Kd

Annotate the sequence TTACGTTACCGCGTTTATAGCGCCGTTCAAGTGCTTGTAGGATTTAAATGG [4149-8_415] with its measured Kd.
0.03 nM

###

# Tested on: VEGF-121 (Homo sapiens), P15692-9
# Sequence: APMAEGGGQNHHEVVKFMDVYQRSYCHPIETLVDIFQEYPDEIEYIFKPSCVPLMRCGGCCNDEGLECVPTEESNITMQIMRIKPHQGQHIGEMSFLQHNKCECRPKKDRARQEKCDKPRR
# assayInfo: filter
# conditionsUsed: as 4867-31_192; PS 3' of 12; 3' inverted dT
quantityMeasured: pKd
Lab note: report pKd as minus log10 of the concentration in molar units, number only.

Annotate the sequence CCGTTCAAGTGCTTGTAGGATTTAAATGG [4867-31_440] with its measured pKd.
11.00

###

# Tested on: VEGF-121 (Homo sapiens), P15692-9
# Sequence: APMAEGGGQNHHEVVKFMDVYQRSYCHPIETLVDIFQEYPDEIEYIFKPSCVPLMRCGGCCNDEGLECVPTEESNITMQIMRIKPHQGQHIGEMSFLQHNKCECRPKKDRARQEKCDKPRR
# assayInfo: filter
# conditionsUsed: P=Nap-dU; 2'-OMe A32
quantityMeasured: Kd (nM)
API: value field is a number in nM; no unit string.

Annotate the sequence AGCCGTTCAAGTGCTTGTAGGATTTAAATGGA [4867-31_96] with its measured Kd.
0.13

###

# measuredTarget: PDGF-BB (platelet-derived growth factor BB) (Homo sapiens) (UniProt P01127)
# assayInfo: filter
# conditionsUsed: 4149-8_260 3'-3' dimer, C3, doubler
quantityMeasured: Kd
Kindly format the answer as number then unit.

Report Kd from PDGF-BB (platelet-derived growth factor BB) (Homo sapiens) (UniProt P01127) testing of TTACGTTACACGCGTTTATAGCGNT [4149-8_339]
6.2 pM

###

# Test system: VEGF-121 (Homo sapiens), P15692-9
# Sequence: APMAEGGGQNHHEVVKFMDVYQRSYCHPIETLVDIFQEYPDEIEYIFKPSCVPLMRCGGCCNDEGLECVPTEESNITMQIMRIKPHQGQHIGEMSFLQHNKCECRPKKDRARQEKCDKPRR
# assayInfo: filter
# conditionsUsed: PDGF-4Heg-VEGF; NapdU, 2'-OMe
quantityMeasured: Kd (nM)
API: value field is a number in nM; no unit string.

Annotate the sequence CGACAGCATGTATGCACATCTCCGTTCAAGTGCTTGTAGGATTTAAATGG [5169-4_101] with its measured Kd.
0.13

###

# measuredTarget: PDGF-BB (platelet-derived growth factor BB) (Homo sapiens) (UniProt P01127)
# assayInfo: cell_activity
# conditionsUsed: NapdU (5-(N-naphthylmethylcarboxamide)-2'-deoxyuridine) at 9,11,13,19,21; rest DNA; inhibition of PDGFRbeta phosphorylation
quantityMeasured: IC50 (nM)
API: value field is a number in nM; no unit string.

Report IC50 from PDGF-BB (platelet-derived growth factor BB) (Homo sapiens) (UniProt P01127) testing of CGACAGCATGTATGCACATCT [5169-4_26]
1.6

###

# measuredTarget: PDGF-BB (platelet-derived growth factor BB) (Homo sapiens) (UniProt P01127)
# assayInfo: filter
# conditionsUsed: as 4149-8_379; BndU 2; NapdU 16; PS 9,15
quantityMeasured: pKd
Lab note: report pKd as minus log10 of the concentration in molar units, number only.

Annotate the sequence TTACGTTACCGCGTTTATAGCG [4149-8_437] with its measured pKd.
11.13

###

# System: VEGF-121 (Homo sapiens), P15692-9
# Sequence: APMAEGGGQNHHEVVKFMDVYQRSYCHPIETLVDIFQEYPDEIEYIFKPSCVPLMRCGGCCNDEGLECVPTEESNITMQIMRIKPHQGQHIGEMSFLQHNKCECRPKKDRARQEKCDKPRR
# assayInfo: filter
# conditionsUsed: P=Nap-dU; C3 spacer at 19
quantityMeasured: pKd
Lab note: report pKd as minus log10 of the concentration in molar units, number only.

Annotate the sequence CCCTCCATCAGCCGTTCAGTGCTTGTAGGATTTAAATGGAATTGGAGGA [4867-15_42] with its measured pKd.
7.51

###

# Test system: VEGF-121 (Homo sapiens), P15692-9
# Sequence: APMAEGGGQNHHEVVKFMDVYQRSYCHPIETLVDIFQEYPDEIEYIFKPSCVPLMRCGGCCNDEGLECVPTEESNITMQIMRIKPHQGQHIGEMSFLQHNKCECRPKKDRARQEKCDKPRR
# assayInfo: filter
# conditionsUsed: as 4867-31_192; PS 3' of 16; 3' inverted dT
quantityMeasured: pKd
Lab note: report pKd as minus log10 of the concentration in molar units, number only.

Annotate the sequence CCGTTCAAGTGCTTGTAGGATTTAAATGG [4867-31_421] with its measured pKd.
10.82

###

# measuredTarget: PDGF-BB (platelet-derived growth factor BB) (Homo sapiens)
# assayInfo: filter
# conditionsUsed: 4149-8_260 3'-3' dimer, Heg, doubler
quantityMeasured: Kd (nM)
API: value field is a number in nM; no unit string.

Annotate the sequence TTACGTTACACGCGTTTATAGCGNT [4149-8_340] with its measured Kd.
0.0189

###

# measuredTarget: PDGF-BB (platelet-derived growth factor BB) (Homo sapiens) (UniProt P01127)
# assayInfo: filter
# conditionsUsed: as 5169-4_146; PS 15; 3' inverted dT
quantityMeasured: pKd
Lab note: report pKd as minus log10 of the concentration in molar units, number only.

Annotate the sequence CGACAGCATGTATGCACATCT [5169-4_175] with its measured pKd.
11.16
